- assay.system: T1, human PD1-ECD (human, UniProt Q15116 25-170)
- T1 construct: SPR analyte; also called hu PD1-ECD
- protocol.text: SPR Biacore T200, Ab captured on anti-human IgG, 25 C
// boundary case: koff equal to 0.0003 s⁻¹ maps to -1; strictly smaller maps to 1

[
  {
    "binder": "PD1-0103-0314 (antibody, human IgG1, V domains shown, Humanized) VH: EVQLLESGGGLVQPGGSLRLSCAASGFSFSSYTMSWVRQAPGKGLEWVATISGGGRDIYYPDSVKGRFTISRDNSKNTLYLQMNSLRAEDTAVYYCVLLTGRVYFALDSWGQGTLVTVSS VL: EIVLTQSPATLSLSPGERATLSCRASESVDTSDNSFIHWYQQKPGQSPRLLIYRSSTLESGIPARFSGSGSGTDFTLTISSLEPEDFAVYYCQQNYDVPWTFGQGTKVEIK",
    "label.class": 1
  },
  {
    "binder": "PD1-0103-0313 (antibody, human IgG1, V domains shown, Humanized) VH: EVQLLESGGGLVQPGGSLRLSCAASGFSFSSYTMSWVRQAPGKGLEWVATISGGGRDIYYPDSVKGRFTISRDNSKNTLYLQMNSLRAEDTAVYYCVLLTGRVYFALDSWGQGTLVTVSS VL: DVVMTQSPLSLPVTLGQPASISCRASESVDTSDNSFIHWYQQRPGQSPRLLIYRSSTLESGVPDRFSGSGSGTDFTLKISRVEAEDVGVYYCQQNYDVPWTFGQGTKVEIK",
    "label.class": -1
  },
  {
    "binder": "PD1-0103-0312 (antibody, human IgG1, V domains shown, Humanized) VH: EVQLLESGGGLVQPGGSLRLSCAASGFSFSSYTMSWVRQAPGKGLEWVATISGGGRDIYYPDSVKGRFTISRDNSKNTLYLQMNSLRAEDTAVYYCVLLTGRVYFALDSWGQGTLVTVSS VL: DIVMTQSPDSLAVSLGERATINCKASESVDTSDNSFIHWYQQKPGQSPKLLIYRSSTLESGVPDRFSGSGSGTDFTLTISSLQAEDVAVYYCQQNYDVPWTFGQGTKVEIK",
    "label.class": -1
  }
]
